// values below are reported IC50
Tested on: human primary T-cells, IL-2 stimulated proliferation (JAK-1 and JAK-3 dependent; reported as JAK3 activity)
Test: Human primary T-cell proliferation stimulated by IL-2 (Example 3)
Format: cell-based
Conditions: Homo sapiens, T-cell, tested under conditions described in Example 3 (IL-2 stimulated human primary T-cell proliferation); read-out: ability to inhibit JAK3 activity, IC50 range (Table V)

Recorded IC50, per entry:
[
  {
    "compound": "Cc1cnc(Nc2ccc3c(c2)CNC3)nc1Nc1ccc2oc(=O)[nH]c2c1",
    "endpoint": "IC50",
    "result": "< 500 nM"
  },
  {
    "compound": "CCCn1c(=O)oc2ccc(Nc3nc(Nc4ccc(N5CCN(C)CC5)nc4)ncc3C)cc21",
    "endpoint": "IC50",
    "result": "< 500 nM"
  },
  {
    "compound": "Cc1cnc(Nc2cc(F)ccc2F)nc1Nc1ccc2oc(=O)[nH]c2c1",
    "endpoint": "IC50",
    "result": "< 500 nM"
  }
]

Now consider a different compound.
Q: Answer with the recorded IC50 of CNC(C)c1cc(Nc2ncc(C)c(Nc3ccc4oc(=O)[nH]c4c3)n2)cc(OC)c1 (centres unmarked) only.
Result: < 500 nM
